System: HT29 colon
Test: NCI tumour cell line growth inhibition, 48 h

molecule	TGI
NC1=NS(=O)(=O)Nc2nc(-c3cccs3)[nH]c21	> 100 µM
Cc1cccc(N=C2NC(=O)C(CC(=O)Nc3ccc(Cl)cc3C)S2)c1 (configuration not stated)	> 100 µM
CC(C)CNc1nc(N=[N+]=[N-])nc(NCC(C)C)n1	> 10 µM
COC(=O)CCc1ccc2c(c1)CC1(C2)Cc2ccc3c(c2C1)CCC3 (configuration not stated)	> 100 µM
CCCCCC(=O)Cc1cc(OC)cc2c1C(=O)Oc1cc(O)c(C(=O)O)c(CC(=O)CCCCC)c1O2	> 100 µM
O=C1c2ccccc2C(=O)c2sc(Nc3ccc(Cl)c(Cl)c3)nc21	42.5 µM
O=C(/C=C/c1ccc(F)c(F)c1)OCCc1ccccc1	> 100 µM
CCc1oc2ccc(OC)c3c2c1C=CC=C3	> 100 µM
COc1ccc(Nc2nc3ccccc3nc2C(=O)O)cc1	> 100 µM
O=C(Nc1ccc(S(=O)(=O)NC2CCCCCC2)cc1)C(c1ccccc1)S(=O)(=O)c1ccc(F)cc1 (configuration not stated)	1.56 µM
C[C@@H](Oc1cc(-c2cnn(C3CC4(CCCNC4)C3)c2)cnc1N)c1c(Cl)ccc(F)c1Cl (some centres not stated)	2.3 µM
CC12OC3CC(O1)C1(C=O)C4CCC5(C)C(c6ccc(=O)oc6)CCC5(O)C4CCC1(C3)O2 (configuration not stated)	1.3 µM

###

System: SF-295 CNS
Assay: NCI tumour cell line growth inhibition, 48 h; in the data active means GI50 below about 0.43 µM; inactive means the rest
Outcomes: y for active, n for inactive

compound	classLabel
CC(C)N(C[C@H]1O[C@@H](n2cnc3c(N)ncnc32)[C@H](O)[C@@H]1O)C1CC(CCc2nc3ccc(C(C)(C)C)cc3[nH]2)C1 (stereo partly specified)	n
ClC1=C(Cl)C(Cl)=C(Cl)C1=Cc1ccc(Cl)cc1	n
CCC[CH2][Sn]1([CH2]CCC)[O]C(=O)c2cc(C)ccc2[O]1	n
O=C(CC1(O)C(=O)Nc2c(Cl)ccc(Cl)c21)c1ccc(C2CC2)cc1 (stereo unspecified)	n
COc1ccc(-n2cc(-c3ccc(OC)c(OC)c3)nc2SCc2ccccc2)cc1Cl	n
CN(NC(=O)CC(=O)NN(C)C(=S)c1ccc(Cl)cc1)C(=S)c1ccc(Cl)cc1	n
C/C(=N\Nc1cccc(Cl)n1)c1ccccn1	n
Cc1cc2nc3c4ccccc4n(CCN(C)C)c3nc2cc1C	n
C[C@@H]1CN2[C@H]3[C@@H]1CC[C@]31CCC(=O)O[C@]1(C)[C@@H]1CC[C@H]3CCC=C3[C@@H]12	n
CON	n
O=C(NO)c1cnc(N2CCN(S(=O)(=O)c3ccc4ccccc4c3)CC2)nc1	y

###

Tested on: HCC-2998 colon
Assay: NCI tumour cell line growth inhibition, 48 h
Quick list: TGI per entry.

compound	TGI
CN1CCN(c2ccc3nc4c(nc3c2C(F)(F)F)C(=O)c2ncccc2C4=O)CC1	2.63 µM
O=c1[nH]c2c(O)cccc2c2cc3c(c(O)c12)OCO3	56.1 µM
NC(=O)C(=CN1CC(=O)NC1=S)C(N)=O	> 100 µM
O=[N+]([O-])c1ccc(-c2ccccc2)c([As](=O)(O)O)c1	45.5 µM
C[C@@H]1CN2[C@H]3[C@@H]1CC[C@]31CCC(=O)O[C@]1(C)[C@@H]1CC[C@H]3CCC=C3[C@@H]12	> 70 µM
O=C(Nc1ccc(F)cc1)c1cc2ccc(O)cc2oc1=Nc1ccccc1F	> 100 µM
COc1ccc2c(c1)CC[C@@H]1[C@@H]2CC[C@]2(C)[C@@H](O)/C(=C/c3ccncc3)C[C@@H]12	23.6 µM
NC1=NS(=O)(=O)Nc2nc(-c3cccs3)[nH]c21	> 100 µM
Oc1[nH]c2ccc(Cl)cc2c1/C=c1/ccc2c(c1)N=C(c1cc(F)cc(F)c1)N=2	> 100 µM
Cc1cc(C)c2[s+]snc2c1	> 100 µM
CS[C@@]1(C(=O)Nc2ccc3[nH]nc(-c4ccc(OC(C)C)nc4)c3c2)CCN(CC(=O)N2CC=C(c3ccc(-c4ncn(C)n4)cc3)CC2)C1	> 100 µM
Oc1ccc2ccccc2c1Cc1c(O)ccc2ccccc12	40.6 µM
CCC[CH2][Sn]1([CH2]CCC)[O]C(=O)c2cc(C)ccc2[O]1	1.98 µM
COc1cc2c3c(c1O)C1(C=CC(=O)C=C1)CC3N(C)CC2 (stereo not given)	24.8 µM
COc1c2ccoc2c(S(=O)(=O)Nc2ccc(Cl)cc2)c2oc(C)cc(=O)c12	> 100 µM
N#CC(c1ccccc1)(c1ccccc1)[C@@H](c1ccccc1)[C@H](Cc1ccccc1)NS(=O)(=O)c1ccccc1	> 100 µM
FC(F)(F)C1(C(F)(F)F)C2CCC3(CC(F)(F)C(F)(F)S3)C1C2 (stereo not given)	> 100 µM
CN(C)/C=N/S(=O)(=O)c1nn2c(C=O)c(-c3ccc([N+](=O)[O-])cc3)nc2s1	> 43.4 µM
N#CC[C@H](C1CCCC1)n1cc(-c2ncnc3[nH]ccc23)cn1	> 91.7 µM
COP(=O)(C(/C=C/c1ccccc1)OC(C)=O)[C@@H]1CCCC[C@H]1N(CC(C)(C)C)C(C)=O (stereo not given in full)	28.2 µM

###

Test system: COLO 205 colon
Assay: NCI tumour cell line growth inhibition, 48 h
Known TGI of a selection of molecules
measurementLabel: TGI

molecule	result
COc1ccc(Nc2nc3ccccc3nc2C(=O)O)cc1	> 100 µM
O=C(O)c1cc(N(Cc2ccccc2O)Cc2cc(O)ccc2O)ccc1O	> 100 µM
O=S(Cc1cc2c(cc1Br)OCO2)c1ccccc1 (centres undefined)	> 100 µM
N#CC(C#N)=Cc1ccc(-c2ccc(-c3nc4ccccc4o3)cc2)o1	> 100 µM
COP(=O)(C(/C=C/c1ccccc1)OC(C)=O)[C@@H]1CCCC[C@H]1N(CC(C)(C)C)C(C)=O (some centres undefined)	27.1 µM
COc1cc2c3c(c1O)C1(C=CC(=O)C=C1)CC3N(C)CC2 (centres undefined)	18.2 µM
Cc1cc(-c2nc3cc(F)ccc3s2)ccc1NC(=O)C(C)N (centres undefined)	13.6 µM
COc1cccc(Nc2nccc(Nc3ccc4[nH]ncc4c3)n2)c1	3.26 µM
CP(C)C.[Ag][I]	> 100 µM
O=P1(O)c2ccccc2CS(=O)(=O)Cc2ccccc21	> 100 µM
COC(=O)/C(=C\C(=O)c1ccc(Br)cc1)NN=C(c1ccccc1)c1ccccc1	> 10 µM
CN(NC(=O)c1cccs1)C1=NCCN1	> 100 µM
C[n+]1c(-c2ccc(/C=N\NC(=O)c3ccc(C(=O)N/N=C/c4ccc(-c5cn6ccsc6[n+]5C)cc4)cc3)cc2)cn2ccsc21	54.3 µM
COc1ccc(C2C(Cl)C(=O)N2NC(=O)c2ccc(N)cc2)cc1OC (centres undefined)	30.3 µM
Cc1sc(/N=C2/NC(=O)CS2)nc1-c1nc(/N=C2/NC(=O)CS2)sc1C	> 50 µM
O=C(CCO)OCCCCCC/C=C\CCCCCC/C=C\CCCCCCCCOC(=O)CCO	> 100 µM
COc1ccc(C2S/C(=C\c3cccc(O)c3)C(=O)N2NC(=O)Cc2ccccc2)cc1 (centres undefined)	> 100 µM
C[C@@H](Oc1cc(-c2cnn(C3CC4(CCCNC4)C3)c2)cnc1N)c1c(Cl)ccc(F)c1Cl (some centres undefined)	1.5 µM
CC(=O)NNc1nc(C)c(C(/C=C/c2ccc(NC(C)=O)cc2)=N/NS(=O)(=O)c2ccc(C)cc2)s1	> 100 µM
COC(=O)Nc1nc2ccc(Sc3ccccc3)cc2[nH]1	0.533 µM
Cc1onc(-c2c(F)cccc2Cl)c1C(=O)N[C@@H]1C(=O)N2[C@@H]1SC(C)(C)[C@@H]2C(=O)O	> 100 µM
Cc1cc2c(=O)[nH]nc(N)c2c(N)n1	> 100 µM
CN(C)/C=N/S(=O)(=O)c1nn2c(C=O)c(-c3ccc([N+](=O)[O-])cc3)nc2s1	> 34.3 µM
COCC12CC(CC1=O)C1C2ON2c3ccccc3C(=O)C12c1ccccc1 (centres undefined)	> 100 µM

###

Test system: MDA-MB-231 breast
Experiment: NCI tumour cell line growth inhibition, 48 h
Label scheme for TGI: lo = under 7 µM, mid = from 7 µM up to 40 µM, hi = 40 µM and over

molecule	classLabel
Cc1cc(C)c2c(c1)C(=O)C1(C2)Cc2c(ccc(C)c2C)C1=O (stereo not given)	hi
c1cnc2c(c1)Nc1cnncc1S2	hi
C/C(=N\Nc1cccc(Cl)n1)c1ccccn1	hi
CCOC(=O)CCC(NC(=O)c1ccc(Oc2nc3ccccc3nc2C(=O)OCC)cc1)C(=O)OCC (stereo not given)	hi
CC1(C)CC2CC(C)(CN2c2ncnc3ccc(Br)cc23)C1 (stereo not given)	mid
CS[C@@]1(C(=O)Nc2ccc3[nH]nc(-c4ccc(OC(C)C)nc4)c3c2)CCN(CC(=O)N2CC=C(c3ccc(-c4ncn(C)n4)cc3)CC2)C1	hi
CCOC(=O)c1c(N2CCOCC2)[nH]c(=O)c(C(c2ccc(Cl)c([N+](=O)[O-])c2)c2c(O)c(C(=O)OCC)c(N3CCOCC3)[nH]c2=O)c1O	hi
CCS/C(Nc1ccccc1)=C(\C#N)C(=O)N/N=C/c1ccc(Cl)cc1Cl	hi
O=C(CC1(O)C(=O)Nc2c(Cl)ccc(Cl)c21)c1ccc(C2CC2)cc1 (stereo not given)	mid
O=C(Nc1ccc(S(=O)(=O)NC2CCCCCC2)cc1)C(c1ccccc1)S(=O)(=O)c1ccc(F)cc1 (stereo not given)	lo
C[C@@H](Oc1cc(-c2cnn(C3CC4(CCCNC4)C3)c2)cnc1N)c1c(Cl)ccc(F)c1Cl (stereo not given in full)	lo
O=[N+]([O-])c1ccc(-c2ccccc2)c([As](=O)(O)O)c1	mid
Cc1sc(/N=C2/NC(=O)CS2)nc1-c1nc(/N=C2/NC(=O)CS2)sc1C	hi
N#Cc1c(Oc2ccc(F)c(NC(=O)Cc3cccc(C(F)(F)F)c3)c2)ccc2nc(NC(=O)C3CC3)sc12	lo
C[n+]1c(-c2ccc(/C=N\NC(=O)c3ccc(C(=O)N/N=C/c4ccc(-c5cn6ccsc6[n+]5C)cc4)cc3)cc2)cn2ccsc21	hi
O=C1c2ccccc2C(=O)c2c(NC(=O)c3ccc4c5c(ncnc35)-c3ccccc3C4=O)cccc21	hi
CCOc1ccc2c(c1)NC(=O)C(C1OC(c3ccccc3)=CC1=O)S2 (stereo not given)	hi
COc1ccc(C(=O)c2ccc(-n3c4ccccc4c4ccc5c(c43)C(=O)C=CC5=O)cc2)cc1	lo
CCOc1cc(/C=N\NC(=O)N/N=C/c2ccc(O)c(OCC)c2)ccc1O	hi
Cc1cc(Br)cc(C)c1NC(=O)C(=O)C1C(=O)C(CC2C(=O)c3ccccc3C2=O)C(=O)CC1(C)C (stereo not given)	hi
CC1(C)C(=O)C2(C#N)CCC1C2 (stereo not given)	hi
N#CSCC(=O)c1ccc(Cl)cc1	mid
CC(=O)OCC(=O)C1(O)C(C)CC2C3C=C(C)C4=Cc5c(cnn5-c5ccccc5)CC4(C)C3C(O)CC21C (stereo not given)	lo
Nc1cnc2c(c1)c(=O)nc1n2CCS1	hi
COc1ccc(C2C3=C(COC3=O)N(CCO)c3cc4c(cc32)OCCO4)cc1OC (stereo not given)	mid
C=C1CO[C@@H]2C[C@@H]1CC/C(C)=C/CC/C(C)=C/CC[C@@]2(C)O	mid
Cc1c(N2C(=O)/C(=C\c3ccc(N(C)C)cc3)N=C2c2ccccc2)c(=O)n(-c2ccccc2)n1C	hi
NC(=O)NC(=O)C1CCCCC1C(=O)O (stereo not given)	hi
CC(=O)NNc1nc(C)c(C(/C=C/c2ccc(NC(C)=O)cc2)=N/NS(=O)(=O)c2ccc(C)cc2)s1	hi
O=c1c2ncn(CCCl)c2n(-c2ccccc2)c(=S)n1-c1ccccc1	hi
CN(NC(=O)c1cccs1)C1=NCCN1	hi
Cc1cc2nc3c4ccccc4n(CCN(C)C)c3nc2cc1C	mid
Cc1onc(-c2c(F)cccc2Cl)c1C(=O)N[C@@H]1C(=O)N2[C@@H]1SC(C)(C)[C@@H]2C(=O)O	hi
